Assay: protein stability index of a GFP-peptide fusion (yeast GPS) (PSI 1-4); higher = more stable; sorted into four equal gates, so the index is relative within each strain
Conditions: pdr5∆
Measurement name: protein stability index
Answers are plain numbers.

Recorded protein stability index, per entry:
SFIISSLDTLELESITE [NUT1] : 1.64
MATPSFGNSSPQLTFTH [YML103C/NUP188] : 2.1
GASGEERLMSRPFGVAL [PUP2] : 3.24

For every record below, what is its protein stability index?
1. KLISAFDDLEVEELPTF [RRP42]
2. SARGSYLRVSFKNTRET [RPL17A]
3. MAQRTLKNKYESYDAAL [FAS2]
4. EKLINNSDDCMMEEIIN [ECM29]
5. TDGVIGSRTTTNHVLEV [RPO31]
6. IHSLVKQRLDLARQVKL [YIL149C/MLP2]

1. 2.84
2. 2.82
3. 3.06
4. 3.1
5. 3.62
6. 2.6

* * *

Test: protein stability index of a GFP-peptide fusion (yeast GPS) (PSI 1-4); higher = more stable; sorted into four equal gates, so the index is relative within each strain
Settings: ubr1∆
Measurement name: protein stability index
Numbers only.

NMKVTILHGSKSQEQRE [PRP28] : 3.35
GVSRQIAASAFLSLLNL [REC8] : 1.23
GDKDTRADIVRNIILEA [ISW2] : 2.56
VLAKRMANLSQIYTQRA [SCL1] : 2.69
SDIVFIHQNAGRLLRAM [BRR2] : 2.02

For every record below, what is its protein stability index?
1. LSQSSSYLETLTALGKE [MED2]
2. GKPSFVFGASDKQAEGT [YOR098C/NUP1]
3. VPVALKGQGPFTLTYDI [YMR129W/POM152]
4. HMSTYLKIYKVGDIVDI [RPL21B]
5. TPSTEESRAQNVFGQDN [SWI3]
6. QAISYLHKLQRMRLRAL [GRR1]

2.44
3.29
2.8
1.95
2.55
1.49

* * *

Test: protein stability index of a GFP-peptide fusion (yeast GPS) (PSI 1-4); higher = more stable; sorted into four equal gates, so the index is relative within each strain
Conditions: ubr1∆
I'd appreciate it if you could supply protein stability index values for the items below.
Answers are plain numbers.

Recorded protein stability index, per entry:
PEYAKVGDFLLQYANNA [SIN4] : 1.97
EQNSSSAKPSQIPTVSS [SIR4] : 3.04

Please examine the following record next.
# query: protein stability index of entry IDGKVIQAGKFDNKSTS [SNF2]
1.95

* * *

Assay: protein stability index of a GFP-peptide fusion (yeast GPS) (PSI 1-4); higher = more stable; sorted into four equal gates, so the index is relative within each strain
Conditions: ubr1∆
Measurement name: protein stability index
Answers are plain numbers.

LSIAIVGKDTPFTIYDG [PRE5] : 3.07
EMIDSHIKEASEEVDDL [SNF2] : 3.09
LSKMENVNLDDYPDDSG [NAS6] : 3.05
RDLSEASVYPEYALPKT [RPS26A] : 3.09
NVSNTFNKTTNIDINNE [YJL041W/NSP1] : 3.08

For every record below, what is its protein stability index?
1. ILTKEVQGSTLAQLTSK [RPS1A]
2. MASGSTTFTKVAAKWNT [PRP8]
3. EKTINDLQRTQTLSEKE [YIL149C/MLP2]
4. FGELQFAFLNAMFFGNY [AAR2]

2.93
2.93
2.94
3
